Origin of the recorded values: patent US20050013808A1

Each entry below lists one item and its recorded kcat value.
TEST SUMMARY: Steady state kinetics of purified NTR, variable substrate NADH
Type: biochemical
MEASUREMENT SETUP: fixed substrate nitrofurazone
Procedure: Wild type NTR and selected mutants were purified as described by Lovering et al., 2001. […] The formation of the 4 hydroxylamine product of CB1954 reduction was monitored at 420 nm ( ? =7900, Richard Knox, personal communication). All reactions were performed in quartz cuvettes with either a 0.1-, 0.5-, or 1-cm pathlength. […] Kinetic data were collected at concentration ranges extending from 0.1 of Km to the maximum possible concentration permitted by substrate solubility or optical absorbance. […]
Give just the number in s⁻¹; leave the unit off.

A selection of reference data follows.
- MOLECULE: "F124H: NTR mutant, phenylalanine 124 to histidine (protein) MDIISVALKRHSTKAFDASKKLTPEQAEQIKTLLQYSPSSTNSQPWHFIVASTEEGKARVAKSAAGNYVFNERKMLDASHVVVFCAKTAMDDVWLKLVVDQEDADGRFATPEAKAANDKGRKFHADMHRKDLHDDAEWMAKQVYLNVGNFLLGVAALGLDAVPIEGFDAAILDAEFGLKEKGYTSLVVVPVGHHSVEDFNATLPKSRLPQNITLTEV"
  kcat (s⁻¹): 10.3
- MOLECULE: "T41L: NTR mutant, threonine 41 to leucine (protein) MDIISVALKRHSTKAFDASKKLTPEQAEQIKTLLQYSPSSLNSQPWHFIVASTEEGKARVAKSAAGNYVFNERKMLDASHVVVFCAKTAMDDVWLKLVVDQEDADGRFATPEAKAANDKGRKFFADMHRKDLHDDAEWMAKQVYLNVGNFLLGVAALGLDAVPIEGFDAAILDAEFGLKEKGYTSLVVVPVGHHSVEDFNATLPKSRLPQNITLTEV"
  kcat (s⁻¹): 35.18
- MOLECULE: "F124K: NTR mutant, phenylalanine 124 to lysine (protein) MDIISVALKRHSTKAFDASKKLTPEQAEQIKTLLQYSPSSTNSQPWHFIVASTEEGKARVAKSAAGNYVFNERKMLDASHVVVFCAKTAMDDVWLKLVVDQEDADGRFATPEAKAANDKGRKFKADMHRKDLHDDAEWMAKQVYLNVGNFLLGVAALGLDAVPIEGFDAAILDAEFGLKEKGYTSLVVVPVGHHSVEDFNATLPKSRLPQNITLTEV"
  kcat (s⁻¹): 12
- MOLECULE: "Y68G: NTR mutant, tyrosine 68 to glycine (protein) MDIISVALKRHSTKAFDASKKLTPEQAEQIKTLLQYSPSSTNSQPWHFIVASTEEGKARVAKSAAGNGVFNERKMLDASHVVVFCAKTAMDDVWLKLVVDQEDADGRFATPEAKAANDKGRKFFADMHRKDLHDDAEWMAKQVYLNVGNFLLGVAALGLDAVPIEGFDAAILDAEFGLKEKGYTSLVVVPVGHHSVEDFNATLPKSRLPQNITLTEV"
  kcat (s⁻¹): 54.77

Consider the additional molecule presented here.
Ask: Report kcat, nothing else, for this molecule: Wild type: wild-type E. coli nitroreductase (NTR) encoded by the NfsB gene, SEQ ID NO:1 (protein, listed as Escherichia coli) MDIISVALKRHSTKAFDASKKLTPEQAEQIKTLLQYSPSSTNSQPWHFIVASTEEGKARVAKSAAGNYVFNERKMLDASHVVVFCAKTAMDDVWLKLVVDQEDADGRFATPEAKAANDKGRKFFADMHRKDLHDDAEWMAKQVYLNVGNFLLGVAALGLDAVPIEGFDAAILDAEFGLKEKGYTSLVVVPVGHHSVEDFNATLPKSRLPQNITLTEV
Reply: 11
